experiment: Plasma pharmacokinetics following a single intravenous and subcutaneous injection of a combination of formoterol and budesonide
condition-context: female, Gottingen, minipig, in vivo, Plasma concentration of formoterol, SC1 0.4 μg/kg, combination, female 2-0623, 0.500 hr
Protocol: Formoterol fumarate dehydrate and budesonide were formulated in 2% PEG-400 in saline. 1 male and 1 female non-naive Gottingen minipigs (8 to 12 kg upon receipt per protocol) were utilized. The animals were housed individually. […] Plasma samples were analyzed for formoterol and budesonide using a qualified liquid chromatography/mass spectrometry/mass mass spectrometry (LC/MS/MS) method. The lower limit of quantitation (LLOQ) was 1.00 pg/mL for formoterol and 25.0 pg/mL for budesonide. […]
measured-metric: concentration at 0.5 hr (ng/mL)
Unit ng/mL implied. Number only.

stdin: Could you please provide reported concentration at 0.5 hr for COc1ccc(CC(C)NCC(O)c2ccc(O)c(NC=O)c2)cc1 (stereo not shown) ? Thanks!
stdout: 0.127

====

experiment: Plasma pharmacokinetics following a single intravenous and subcutaneous injection of a combination of formoterol and budesonide
condition-context: male, Gottingen, minipig, in vivo, iv, 0.4 ug/kg, t1/2, formoterol 0.4 μg/kg IV in combination with budesonide, male 1-0771
measured-metric: half-life
Field: value (include unit after the number)

stdin: Could you please provide reported half-life for COc1ccc(CC(C)NCC(O)c2ccc(O)c(NC=O)c2)cc1 (stereo not shown) ? Thanks!
stdout: 2.54 h

====

experiment: Plasma pharmacokinetics following a single intravenous and subcutaneous injection of a combination of formoterol and budesonide
condition-context: female, Gottingen, minipig, in vivo, Plasma concentration of formoterol, SC1 0.4 μg/kg, combination, female 2-0623, 1.00 hr
measured-metric: concentration at 1 hr

stdin: Could you please provide reported concentration at 1 hr for COc1ccc(CC(C)NCC(O)c2ccc(O)c(NC=O)c2)cc1 (stereo not shown) ? Thanks!
stdout: 0.0678 ng/mL

====

experiment: Plasma pharmacokinetics following a single intravenous and subcutaneous injection of a combination of formoterol and budesonide
condition-context: male, Gottingen, minipig, in vivo, Plasma concentration of formoterol, SC1 0.4 μg/kg, combination, male 1-0771, 2.00 hr
measured-metric: concentration at 2 hr (ng/mL)
Unit ng/mL implied. Number only.

stdin: Could you please provide reported concentration at 2 hr for COc1ccc(CC(C)NCC(O)c2ccc(O)c(NC=O)c2)cc1 (stereo not shown) [Formoterol, formoterol] ? Thanks!
stdout: 0.0822

====

experiment: Plasma pharmacokinetics following single intravenous and subcutaneous injections of salmeterol xinafoate
condition-context: male, Gottingen, minipig, in vivo, sc, 0.4 ug/kg
measured-metric: Tmax (min)
Unit min implied. Number only.

stdin: Could you please provide reported Tmax for OCc1cc(C(O)CNCCCCCCOCCCCc2ccccc2)ccc1O (racemic) ? Thanks!
stdout: 5

====

experiment: Plasma pharmacokinetics following single intravenous and subcutaneous injections of salmeterol xinafoate
condition-context: female, Gottingen, minipig, in vivo
measured-metric: concentration at 0.0833 hr (ng/mL)
Unit ng/mL implied. Number only.

stdin: Could you please provide reported concentration at 0.0833 hr for OCc1cc(C(O)CNCCCCCCOCCCCc2ccccc2)ccc1O (racemic) ? Thanks!
stdout: 0.485

====

experiment: Plasma pharmacokinetics following a single intravenous and subcutaneous injection of a combination of formoterol and budesonide
condition-context: male, Gottingen, minipig, in vivo, iv, 0.4 ug/kg
measured-metric: clearance (mL/min/kg)
Unit mL/min/kg implied. Number only.

stdin: Could you please provide reported clearance for COc1ccc(CC(C)NCC(O)c2ccc(O)c(NC=O)c2)cc1 (stereo not shown) [Formoterol, formoterol] ? Thanks!
stdout: 25.3

====

experiment: in vivo
condition-context: male, Gottingen, minipig, in vivo, sc, 0.4 ug/kg, Cmax
measured-metric: Cmax (ng/mL)
Unit ng/mL implied. Number only.

stdin: Could you please provide reported Cmax for OCc1cc(C(O)CNCCCCCCOCCCCc2ccccc2)ccc1O (racemic) [Salmeterol] ? Thanks!
stdout: 0.0645

====

experiment: Plasma pharmacokinetics following a single intravenous and subcutaneous injection of a combination of formoterol and budesonide
condition-context: female, Gottingen, minipig, in vivo, iv, Plasma concentration of formoterol, IV 0.4 μg/kg, combination, female 2-0623, 0.0333 hr
Method: Formoterol fumarate dehydrate and budesonide were formulated in 2% PEG-400 in saline. 1 male and 1 female non-naive Gottingen minipigs (8 to 12 kg upon receipt per protocol) were utilized. The animals were housed individually. […] Plasma samples were analyzed for formoterol and budesonide using a qualified liquid chromatography/mass spectrometry/mass mass spectrometry (LC/MS/MS) method. The lower limit of quantitation (LLOQ) was 1.00 pg/mL for formoterol and 25.0 pg/mL for budesonide. […]
measured-metric: concentration at 0.0333 hr

stdin: Could you please provide reported concentration at 0.0333 hr for COc1ccc(CC(C)NCC(O)c2ccc(O)c(NC=O)c2)cc1 (stereo not shown) [Formoterol, formoterol] ? Thanks!
stdout: 0.9 ng/mL

====

experiment: Plasma pharmacokinetics following a single intravenous and subcutaneous injection of a combination of formoterol and budesonide
condition-context: female, Gottingen, minipig, in vivo, iv, 0.4 ug/kg, t1/2, formoterol 0.4 μg/kg IV in combination with budesonide, female 2-0623
measured-metric: half-life
Field: value (include unit after the number)

stdin: Could you please provide reported half-life for COc1ccc(CC(C)NCC(O)c2ccc(O)c(NC=O)c2)cc1 (stereo not shown) [Formoterol, formoterol] ? Thanks!
stdout: 2.86 h

====

experiment: Plasma pharmacokinetics following a single intravenous and subcutaneous injection of a combination of formoterol and budesonide
condition-context: female, Gottingen, minipig, in vivo, Plasma concentration of formoterol, SC1 0.4 μg/kg, combination, female 2-0623, 0.167 hr
measured-metric: concentration at 0.167 hr (ng/mL)
Unit ng/mL implied. Number only.

stdin: Could you please provide reported concentration at 0.167 hr for COc1ccc(CC(C)NCC(O)c2ccc(O)c(NC=O)c2)cc1 (stereo not shown) ? Thanks!
stdout: 0.237

====

experiment: Plasma pharmacokinetics following a single intravenous and subcutaneous injection of a combination of formoterol and budesonide
condition-context: female, Gottingen, minipig, in vivo, iv, 0.4 ug/kg, Cmax, formoterol 0.4 μg/kg IV in combination with budesonide, female 2-0623
measured-metric: Cmax (ng/mL)
Unit ng/mL implied. Number only.

stdin: Could you please provide reported Cmax for COc1ccc(CC(C)NCC(O)c2ccc(O)c(NC=O)c2)cc1 (stereo not shown) [Formoterol, formoterol] ? Thanks!
stdout: 0.9

====

experiment: Plasma pharmacokinetics following a single intravenous and subcutaneous injection of a combination of formoterol and budesonide
condition-context: male, Gottingen, minipig, in vivo, F (bioavailability), formoterol 0.4 μg/kg SC1 single site, combination, male 1-0771
measured-metric: bioavailability

stdin: Could you please provide reported bioavailability for COc1ccc(CC(C)NCC(O)c2ccc(O)c(NC=O)c2)cc1 (stereo not shown) ? Thanks!
stdout: 238%

====

experiment: Plasma pharmacokinetics following a single intravenous and subcutaneous injection of a combination of formoterol and budesonide
condition-context: female, Gottingen, minipig, in vivo, iv, Plasma concentration of formoterol, IV 0.4 μg/kg, combination, female 2-0623, 4.00 hr
measured-metric: concentration at 4 hr (ng/mL)
Unit ng/mL implied. Number only.

stdin: Could you please provide reported concentration at 4 hr for COc1ccc(CC(C)NCC(O)c2ccc(O)c(NC=O)c2)cc1 (stereo not shown) ? Thanks!
stdout: 0.0184

====

experiment: Plasma pharmacokinetics following a single intravenous and subcutaneous injection of a combination of formoterol and budesonide
condition-context: male, Gottingen, minipig, in vivo, iv, 0.4 ug/kg
measured-metric: Vd (L/kg)
Unit L/kg implied. Number only.

stdin: Could you please provide reported Vd for COc1ccc(CC(C)NCC(O)c2ccc(O)c(NC=O)c2)cc1 (stereo not shown) ? Thanks!
stdout: 3.94

====

experiment: Plasma pharmacokinetics following a single intravenous and subcutaneous injection of a combination of formoterol and budesonide
condition-context: female, Gottingen, minipig, in vivo, Plasma concentration of formoterol, SC5 0.4 μg/kg, combination, female 2-0623, 2.00 hr
measured-metric: concentration at 2 hr (ng/mL)
Unit ng/mL implied. Number only.

stdin: Could you please provide reported concentration at 2 hr for COc1ccc(CC(C)NCC(O)c2ccc(O)c(NC=O)c2)cc1 (stereo not shown) ? Thanks!
stdout: 0.0444

====

experiment: Plasma pharmacokinetics following a single intravenous and subcutaneous injection of a combination of formoterol and budesonide
condition-context: male, Gottingen, minipig, in vivo, AUCinf, formoterol 0.4 μg/kg SC5 (5 sites), combination, male 1-0771
Description: Formoterol fumarate dehydrate and budesonide were formulated in 2% PEG-400 in saline. 1 male and 1 female non-naive Gottingen minipigs (8 to 12 kg upon receipt per protocol) were utilized. The animals were housed individually. […] Plasma samples were analyzed for formoterol and budesonide using a qualified liquid chromatography/mass spectrometry/mass mass spectrometry (LC/MS/MS) method. The lower limit of quantitation (LLOQ) was 1.00 pg/mL for formoterol and 25.0 pg/mL for budesonide. […]
measured-metric: AUC(0-inf) (ng·h/mL)
Unit ng·h/mL implied. Number only.

stdin: Could you please provide reported AUC(0-inf) for COc1ccc(CC(C)NCC(O)c2ccc(O)c(NC=O)c2)cc1 (stereo not shown) ? Thanks!
stdout: 0.579
